Source of measurements: patent US12492188B2

EXPERIMENTAL_TARGET: human TLR9 (Homo sapiens, UniProt Q9NR96)
Construct: host or cells: HEK-Blue cells (HEK293-derived reporter line)
Sequence (Q9NR96 26-1032): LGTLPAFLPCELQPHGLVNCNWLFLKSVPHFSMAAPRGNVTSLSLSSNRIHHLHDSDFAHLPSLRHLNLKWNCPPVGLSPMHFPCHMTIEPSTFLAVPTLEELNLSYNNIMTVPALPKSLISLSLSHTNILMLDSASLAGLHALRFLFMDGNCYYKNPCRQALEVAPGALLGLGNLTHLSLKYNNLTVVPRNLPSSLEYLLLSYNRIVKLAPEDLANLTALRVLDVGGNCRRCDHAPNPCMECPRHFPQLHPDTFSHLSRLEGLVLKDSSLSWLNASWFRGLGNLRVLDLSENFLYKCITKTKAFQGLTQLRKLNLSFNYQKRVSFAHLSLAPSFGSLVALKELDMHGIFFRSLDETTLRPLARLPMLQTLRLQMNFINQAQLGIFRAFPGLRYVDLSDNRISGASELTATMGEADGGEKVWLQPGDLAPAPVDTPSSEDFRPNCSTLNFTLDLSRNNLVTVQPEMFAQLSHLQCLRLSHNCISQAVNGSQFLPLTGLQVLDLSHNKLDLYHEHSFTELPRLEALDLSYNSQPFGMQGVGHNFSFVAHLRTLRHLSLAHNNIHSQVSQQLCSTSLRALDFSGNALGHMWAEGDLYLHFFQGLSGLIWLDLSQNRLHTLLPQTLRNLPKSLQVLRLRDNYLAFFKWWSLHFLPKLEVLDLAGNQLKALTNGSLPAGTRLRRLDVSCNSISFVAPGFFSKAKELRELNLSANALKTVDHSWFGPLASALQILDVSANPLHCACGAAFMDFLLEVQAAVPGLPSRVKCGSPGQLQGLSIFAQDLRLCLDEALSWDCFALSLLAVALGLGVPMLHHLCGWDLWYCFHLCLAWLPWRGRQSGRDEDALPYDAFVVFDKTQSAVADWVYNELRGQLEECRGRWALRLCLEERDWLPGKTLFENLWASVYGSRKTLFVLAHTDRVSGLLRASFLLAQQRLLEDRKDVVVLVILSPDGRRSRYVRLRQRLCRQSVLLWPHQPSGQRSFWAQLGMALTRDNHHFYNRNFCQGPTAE
METHOD_SUMMARY: TLR9 inhibition reporter assay (HEK-Blue cells, secreted embryonic alkaline phosphatase reporter)
Format: cell-based
ASSAY_SETUP: HEK-Blue cells overexpressing human TLR9, stimulated with ODN2006 5 nM, 22 hour incubation, reporter readout
pIC50: −log10 of the molar value.
MEASUREMENT_LABEL: pIC50

Please review the entries below; each comes with its answer.
COMPOUND	EXPERIMENTAL_TARGET	pIC50
CN(C)C1CCN(Cc2ccc(-c3ccc4nc(-c5ccc(F)c(F)c5)n(C)c4c3)cc2)CC1	human TLR9 (Homo sapiens, UniProt Q9NR96)	8.49
COc1ccc(-c2nc3c(F)cc(C4CCN(C5CCN(C(C)C)CC5)CC4)cc3[nH]2)cc1OC	human TLR9 (Homo sapiens, UniProt Q9NR96)	6.68
COc1ccc(-c2nc3ccc(C4CCN(C5CCN(C6CC6)CC5)CC4)cc3n2C)cc1OC	human TLR9 (Homo sapiens, UniProt Q9NR96)	6.96

P. CC(C)N1CCC(N2CCC(c3ccc4nc(-c5ccc(S(C)(=O)=O)cc5)[nH]c4c3F)CC2)CC1
Q. Cc1cc(-c2ccc(CN3CCC(N4CCC4)CC3)cc2)cc2c1nc(-c1ccc(S(C)(=O)=O)cc1)n2C
Exercise: // which entry reports the smaller pIC50, P or Q ? Answer = label.
Key: P

P. Cc1cc(-c2ccc(CN3CCC(N(C)C4CC4)CC3)c(F)c2)cc2c1nc(-c1ccc(S(C)(=O)=O)cc1)n2C
Q. Cc1cc(C2CCN(C3CCN(CC(C)C)CC3)CC2)cc2[nH]c(-c3cccc4ncsc34)nc12
Exercise: Quick check, higher pIC50 between P and Q ? Answer = label.
Key: Q
(Q: 7.51, P: 6.25)
